# Test system: anticorps anti-nef
# procedureDetails: ELISA for detection of anti-nef antibodies on coated peptides or nef
# Type: binding, humain
# conditionInfo: Serum 4, anti-nef positive; 500 ng coated per well
resultType: intensité de l'immunoréactivité (OD), Serum 4

INSERT INTO measurements (substance, datavalue) VALUES
  ('XASRDLEKHGAITSSNTAATNAACAWLEAQEEEEZ [PF13]', '+ (pour OD = 0,2 à 0,4)'),
  ('XGGKWSKSSVVGWPTVRERMRRAEPAADGVGAASRDLEKHGAITSSNTA ATNAACAWLEAQEEEEVGZ [PF12, protéine F HIV-1, séquence 1-66]', '+ (pour OD = 0,2 à 0,4)');
